These entries and their values trace back to the supplement of paper PMC9112550.

# Tested on: Escherichia coli TOP10
# measurement.notes: shrunken log2 fold change of peptide-encoding DNA abundance (4.5 h post-induction vs induction); higher = less antimicrobial activity (less host growth inhibition)
# experimental.conditions: time post-induction: 4.5 h; library: site-saturation at positions 5, 18, 19, 20
Note to self: values exactly at -0.1 are fulfilled. So shrunken log2 fold change at or above -0.1 is fulfilled, below is not fulfilled.

Example results:
seq.text | class.name
RRIRSRPPRLPRPRPRPCRVPRP | fulfilled
RRIRGRPPRLPRPRPRPGWFPRP | fulfilled
RRIRHRPPRLPRPRPRPKWIPRP | not fulfilled
RRIRMRPPRLPRPRPRPECYPRP | not fulfilled
RRIRDRPPRLPRPRPRPHWRPRP | fulfilled

For this sequence, is measured shrunken log2 fold change -0.1 or higher? RRIRARPPRLPRPRPRPHRIPRP not fulfilled

Same thing, different sequence: RRIRFRPPRLPRPRPRPIHPPRP not fulfilled

Same thing, different sequence: RRIRPRPPRLPRPRPRPMYKPRP not fulfilled

---

# Test system: Escherichia coli TOP10
# measurement.notes: shrunken log2 fold change of peptide-encoding DNA abundance (4.5 h post-induction vs induction); higher = less antimicrobial activity (less host growth inhibition)
# experimental.conditions: time post-induction: 4.5 h; library: site-saturation at positions 5, 18, 19, 20
Note to self: values exactly at -0.02 are Condition met. So shrunken log2 fold change at or above -0.02 is Condition met, below is Condition not met.

Example results:
seq.text | tested.target | class.name
RRIRNRPPRLPRPRPRPLTRPRP | Escherichia coli TOP10 | Condition met
RRIRERPPRLPRPRPRPSNNPRP | Escherichia coli TOP10 | Condition not met
RRIRMRPPRLPRPRPRPTEFPRP | Escherichia coli TOP10 | Condition met
RRIRQRPPRLPRPRPRPKCHPRP | Escherichia coli TOP10 | Condition not met
RRIRRRPPRLPRPRPRPTAPPRP | Escherichia coli TOP10 | Condition met

Now take the following sequence into account.
For this sequence, is measured shrunken log2 fold change -0.02 or higher? RRIRHRPPRLPRPRPRPHRGPRP Condition met

---

# Test system: Escherichia coli TOP10
# measurement.notes: shrunken log2 fold change of peptide-encoding DNA abundance (4.5 h post-induction vs induction); higher = less antimicrobial activity (less host growth inhibition)
# experimental.conditions: time post-induction: 4.5 h; library: site-saturation at positions 5, 18, 19, 20
property.name: shrunken log2 fold change

seq.text | tested.target | shrunken log2 fold change
RRIRIRPPRLPRPRPRPHWPPRP | Escherichia coli TOP10 | 0.00237
RRIRMRPPRLPRPRPRPKHEPRP | Escherichia coli TOP10 | 0.767
RRIRCRPPRLPRPRPRPYSWPRP | Escherichia coli TOP10 | -0.77

// each sequence listed below needs its shrunken log2 fold change
1. RRIRNRPPRLPRPRPRPNYCPRP
2. RRIRRRPPRLPRPRPRPARAPRP
3. RRIRNRPPRLPRPRPRPCYCPRP
4. RRIRSRPPRLPRPRPRPFILPRP

[0.0133, 0.523, -0.00992, -0.695]

// each sequence listed below needs its shrunken log2 fold change
1. RRIRHRPPRLPRPRPRPSPPPRP
2. RRIRSRPPRLPRPRPRPAHFPRP
3. RRIRRRPPRLPRPRPRPEVTPRP
4. RRIRYRPPRLPRPRPRPQQIPRP

1. -0.0717
2. -0.418
3. 0.0976
4. -0.142

// each sequence listed below needs its shrunken log2 fold change
1. RRIRARPPRLPRPRPRPKCVPRP
2. RRIRSRPPRLPRPRPRPFQWPRP
3. RRIRSRPPRLPRPRPRPAVEPRP

1. 0.463
2. 0.319
3. 0.39

// each sequence listed below needs its shrunken log2 fold change
1. RRIRRRPPRLPRPRPRPMESPRP
2. RRIRERPPRLPRPRPRPHGSPRP
3. RRIRNRPPRLPRPRPRPQDAPRP
4. RRIRLRPPRLPRPRPRPEVRPRP
5. RRIRCRPPRLPRPRPRPHWMPRP

-0.00992
-0.15
-0.131
-0.0732
-0.371

---

Consider the following sequences; for each one, report its shrunken log2 fold change.
# Test system: Escherichia coli TOP10
# measurement.notes: shrunken log2 fold change of peptide-encoding DNA abundance (4.5 h post-induction vs induction); higher = less antimicrobial activity (less host growth inhibition)
# experimental.conditions: time post-induction: 4.5 h; library: site-saturation at positions 5, 18, 19, 20
Answers are plain numbers.

Sample answers from the record:
seq.text | tested.target | shrunken log2 fold change
RRIRNRPPRLPRPRPRPDDNPRP | Escherichia coli TOP10 | -0.0156
RRIRMRPPRLPRPRPRPLSCPRP | Escherichia coli TOP10 | 0.163
RRIRYRPPRLPRPRPRPNWIPRP | Escherichia coli TOP10 | -0.312
RRIRWRPPRLPRPRPRPHGRPRP | Escherichia coli TOP10 | 0.0589
RRIRDRPPRLPRPRPRPPGRPRP | Escherichia coli TOP10 | 0.104

// each sequence listed below needs its shrunken log2 fold change
1. RRIRRRPPRLPRPRPRPWVPPRP
2. RRIRGRPPRLPRPRPRPLRIPRP
3. RRIRERPPRLPRPRPRPPPMPRP
4. RRIRVRPPRLPRPRPRPIGHPRP
5. RRIRPRPPRLPRPRPRPWNTPRP
6. RRIRIRPPRLPRPRPRPMEQPRP
7. RRIRSRPPRLPRPRPRPQKAPRP

[-0.0825, 0.175, 0.271, -0.426, -0.0902, -0.00783, 0.091]

// each sequence listed below needs its shrunken log2 fold change
1. RRIRFRPPRLPRPRPRPLSEPRP
2. RRIRRRPPRLPRPRPRPQAVPRP

[-0.22, 0.331]

---

# Test system: Escherichia coli TOP10
# measurement.notes: shrunken log2 fold change of peptide-encoding DNA abundance (4.5 h post-induction vs induction); higher = less antimicrobial activity (less host growth inhibition)
# experimental.conditions: time post-induction: 4.5 h; library: site-saturation at positions 5, 18, 19, 20
property.name: shrunken log2 fold change
Give bare numbers.

// each sequence listed below needs its shrunken log2 fold change
1. RRIRMRPPRLPRPRPRPHQTPRP
2. RRIRWRPPRLPRPRPRPWGRPRP
3. RRIRDRPPRLPRPRPRPIYLPRP

[0.184, 0.0619, 2.37]

// each sequence listed below needs its shrunken log2 fold change
1. RRIRKRPPRLPRPRPRPFTTPRP
2. RRIRFRPPRLPRPRPRPAWDPRP
3. RRIRFRPPRLPRPRPRPKDEPRP
4. RRIRMRPPRLPRPRPRPMLIPRP

-0.243
0.0926
-0.13
-0.00481

// each sequence listed below needs its shrunken log2 fold change
1. RRIRWRPPRLPRPRPRPMLSPRP
2. RRIRMRPPRLPRPRPRPWLKPRP
3. RRIRRRPPRLPRPRPRPWDNPRP
4. RRIRPRPPRLPRPRPRPRYAPRP
5. RRIRCRPPRLPRPRPRPVVSPRP
6. RRIRNRPPRLPRPRPRPNAGPRP
7. RRIRKRPPRLPRPRPRPGRYPRP
8. RRIRARPPRLPRPRPRPMEMPRP

-0.0162
-0.11
0.0234
0.0891
-0.229
-0.0954
0.426
0.163

// each sequence listed below needs its shrunken log2 fold change
1. RRIRQRPPRLPRPRPRPSFMPRP
2. RRIRFRPPRLPRPRPRPAFWPRP
3. RRIRSRPPRLPRPRPRPACHPRP
4. RRIRARPPRLPRPRPRPMEHPRP

1. -0.509
2. 0.516
3. -0.0735
4. -0.223

---

# Tested on: Escherichia coli TOP10
# measurement.notes: shrunken log2 fold change of peptide-encoding DNA abundance (4.5 h post-induction vs induction); higher = less antimicrobial activity (less host growth inhibition)
# experimental.conditions: time post-induction: 4.5 h; library: site-saturation at positions 5, 18, 19, 20
Note to self: values exactly at -0.007 are 1.0. So shrunken log2 fold change at or above -0.007 is 1.0, below is 0.0.

Example results:
seq.text | class.name
RRIRHRPPRLPRPRPRPWENPRP | 1.0
RRIRNRPPRLPRPRPRPADKPRP | 1.0
RRIRQRPPRLPRPRPRPPQEPRP | 0.0
RRIRPRPPRLPRPRPRPWNLPRP | 0.0
RRIRDRPPRLPRPRPRPIEKPRP | 0.0

For this sequence, is measured shrunken log2 fold change -0.007 or higher? RRIRRRPPRLPRPRPRPSMNPRP 0.0

Same thing, different sequence: RRIRDRPPRLPRPRPRPKPLPRP 1.0

---

# System: Escherichia coli TOP10;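 note: peptides expressed intracellularly from a pBAD plasmid library in pooled LB shake-flask culture, induced with 0.3% L-arabinose, DNA abundance read by NGS, three biological replicates, DESeq2 with apeglm shrinkage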
# measurement.notes: shrunken log2 fold change of peptide-encoding DNA abundance (4.5 h post-induction vs induction); higher = less antimicrobial activity (less host growth inhibition)
# experimental.conditions: time post-induction: 4.5 h; library: site-saturation at positions 5, 18, 19, 20
Consider the following sequences; for each one, report its shrunken log2 fold change.

seq.text | tested.target | property.name | result
RRIRDRPPRLPRPRPRPKDSPRP | Escherichia coli TOP10 | shrunken log2 fold change | -0.0525
RRIRSRPPRLPRPRPRPQENPRP | Escherichia coli TOP10 | shrunken log2 fold change | -0.0522
RRIRSRPPRLPRPRPRPEWHPRP | Escherichia coli TOP10 | shrunken log2 fold change | 0.0472
RRIRVRPPRLPRPRPRPQCMPRP | Escherichia coli TOP10 | shrunken log2 fold change | -0.528

// each sequence listed below needs its shrunken log2 fold change
1. RRIRLRPPRLPRPRPRPEKLPRP
2. RRIRPRPPRLPRPRPRPPMWPRP
3. RRIRTRPPRLPRPRPRPFFSPRP
4. RRIRWRPPRLPRPRPRPWVCPRP

1. -0.00411
2. 0.412
3. -0.135
4. 0.186
